System: OVCAR-4 ovarian
Test: NCI tumour cell line growth inhibition, 48 h
Record form. Attribute: TGI. Fill in for each entry.
One number for each entry, in µM.

Hi, could you look up TGI for each item in my list?
1. O=[N+]([O-])C(C(Cl)=C(Cl)Cl)=C(n1nnc2ccccc21)n1nnc2ccccc21
2. Cc1cc(Cl)ccc1N=C1NC(=O)C(CC(=O)Nc2cccc(C)c2C)S1 (stereo unspecified)

66.3
69.2

###

Test system: SK-OV-3 ovarian
Assay: NCI tumour cell line growth inhibition, 48 h
Please provide measured TGI for the entries that follow.

Fill in TGI for each of the 4 molecules listed.
1. CCCCCCCCC(C)CCCCCCCCC(=O)OCC(COP(=O)([O-])OCC[N+](C)(C)C)OC(=O)CCCCCCCCC(C)CCCCCCCC (configuration not stated)
2. O=C1N/C(=N\N=C\c2ccccc2)C2(CCCCC2)O1
3. COC(=O)[C@]12C3=C(O)C(=O)C[C@H]1OC[C@H]2C=CC3
4. COC(=O)c1ccc(NC(=O)c2ccc(NC3=C(Cl)C(=O)N(Cc4ccccc4)C3=O)cc2)cc1

1. > 100 µM
2. > 100 µM
3. > 100 µM
4. 38.3 µM

Provide reported TGI for each item, in the same order as listed.
1. O=NN1CCN=C1c1ccc([N+](=O)[O-])cc1
2. Nc1ccc(Cn2ccc3c4c(N)nc(N)nc4ccc32)cc1
3. O=c1[nH]c2ccc(Cl)cc2o1
4. CCOC(=O)/C(C#N)=C\Sc1ccccc1
5. NNC(=O)CCc1ccc2ccc3ccccc3c2c1
6. CCCCCCc1cc2cc(-c3cn4c(n3)sc3ccccc34)c(=O)oc2cc1O
7. c1ccc2c(c1)SP1Sc3ccccc3P21 (configuration not stated)
8. Cc1cc(N(CCC#N)CCC#N)ccc1/C=C(\NC(=O)/C=C/c1ccccc1)C(=O)Nc1ccc(Cl)cc1

> 100 µM
25.4 µM
> 100 µM
74.7 µM
> 100 µM
> 100 µM
> 100 µM
> 100 µM

Dear colleague, could you send me TGI for each of the items below? Thanks.
1. Cc1cccc(Nc2nc3ccccc3nc2NS(=O)(=O)c2ccccc2)c1
2. NC(Cc1cccnn1)C(=O)O (configuration not stated)

["> 100 µM", "> 100 µM"]

###

System: SNB-75 CNS
Experiment: NCI tumour cell line growth inhibition, 48 h
OBSERVATION_TYPE: TGI (µM)
Numbers only, in µM.

• COc1c(-c2ccc3c(c2)OCO3)oc2cc(O)cc(O)c2c1=O = 53.6
• C[C@@H](CS[As](C)C)C(=O)N1CCC[C@H]1C(=O)O = 2.25
• Cc1ccc(Nc2nc(=O)c3c([nH]c4ccccc43)s2)cc1 = 31.6
• COc1ccc2cc(CN3CCC(C4CCN(Cc5ccc6cc(OC)ccc6c5)CC4)CC3)ccc2c1 = 11

Please supply TGI for each of the following items, keeping them in order.
1. CC1CC(=NC2CCCCC2)Nc2ccccc2N1Cc1ccccc1 (stereo unspecified)
2. CC(C)(C)C(=O)c1c(C(F)(F)F)n([O-])c2cc(Cl)c(Cl)cc2[n+]1=O
3. Cc1ccc(-c2c3c(nn2-c2ccc(S(=O)(=O)NC(=O)NC4CCCCC4)cc2)-c2ccccc2C3)cc1
4. CCC[CH2][Sn]([CH2]CCC)([O]C(=O)c1cc(F)ccc1F)[O]C(=O)c1cc(F)ccc1F
5. Cc1cc(Cl)ccc1N=C1NC(=O)C(CC(=O)Nc2cccc(C)c2C)S1 (stereo unspecified)

1. 3.18
2. 0.408
3. 45.5
4. 2.49
5. 48.8

###

Please respond with reported TGI for every item in the list.
System: COLO 205 colon
Test: NCI tumour cell line growth inhibition, 48 h

Example cases with answers are listed next.
• O=C(Cn1c2c(c3ccccc31)CCCC2)N1CCCCC1 = > 100 µM
• CCO[C@@]12CCC3CC4CC[C@@](OCC)(O1)C4C32 (some centres undefined) = > 100 µM
• Cc1ccc2c(n1)NC(=O)C(Cc1ccccc1)(N=[N+]=[N-])C2=O (centres undefined) = > 100 µM
• O=CC(O)C(O)C1OC(=O)c2cc(O)c(O)c(O)c2C2=C(O)C(O)=C3OC(=O)c4c(c(O)c(O)c5c4C3C2C(=O)O5)-c2c(cc(O)c(O)c2O)C(=O)OCC1O (centres undefined) = > 100 µM

Provide the reported TGI of each entry below, same order.
1. O=C1C(Cl)=C(Cl)C(=O)N1c1cccc(C(F)(F)F)c1
2. Cc1cc(Cl)nc(N(CCCNc2ccnc3cc(Cl)ccc23)Cc2cccs2)n1
3. CN(CCCN1C(=O)c2cccc3cc([N+](=O)[O-])cc(c23)C1=O)CCN(C)CCCN1C(=O)c2cccc3cc([N+](=O)[O-])cc(c23)C1=O
4. COc1cccc2c(SCC(=O)Nc3ccccc3-c3ccccc3NC(=O)CSc3c4ccccc4nc4c(OC)cccc34)c3ccccc3nc12
5. COC(=O)C12C34C=CC5(CCC6(C=CC1(CC3)O6)C52C(=O)OC)O4 (centres undefined)
6. CC(=O)O[C@H]1CC[C@H]2[C@@H]3CCC4=C/C(=N/OCCN(C)C)CC[C@]4(C)[C@H]3CC[C@]12C
7. O=C1c2ccn(CCCNC(CO)(CO)CO)c2C(=O)c2c1c(O)c1ccccc1c2O
8. O=C1NC2(CCCCC2)C2CCCCC=C12 (centres undefined)

> 100 µM
3.58 µM
> 39.3 µM
> 100 µM
> 100 µM
8.18 µM
29.4 µM
> 100 µM

List TGI for every entry below, keeping the order given.
1. CCC[CH2][Sn]([CH2]CCC)([O]C(=O)c1cc(F)ccc1F)[O]C(=O)c1cc(F)ccc1F
2. COC(=O)c1sc2c(c1C(=O)OC)C(=NC(C)(C)C)SC2=NC(C)(C)C
3. C(=C\c1ccncc1)/c1ccncc1

1: 2.32 µM; 2: 34 µM; 3: > 100 µM

###

Test system: CCRF-CEM leukemia
Experiment: NCI tumour cell line growth inhibition, 48 h
OBSERVATION_TYPE: TGI (µM)
Numbers only, in µM.

A selection of reference data follows.
* CN(C)CC1C(=O)O[C@H]2[C@H]1CC/C(COC(=O)NCc1ccc(Cn3c(=O)sn(CCCI)c3=O)cc1)=C\CC[C@@]1(C)O[C@@H]21 (some centres undefined) | 7.88
* CC1(C)OC[C@H](COCOP2(=O)Oc3ccc4ccccc4c3-c3c(ccc4ccccc34)O2)O1 | 84.8
* Cc1nc2c(O)c3c(c(O)c2nc1C)C1C=CC3CC1 | 3.53

Here is the next item to consider.
Please indicate TGI recorded for `COCCNCc1ccc(-c2cc3nccc(Oc4ccc(NC(=O)C5(C(=O)Nc6ccc(F)cc6)CC5)cc4F)c3s2)nc1`
7.06

###

Test system: T-47D breast
Experiment: NCI tumour cell line growth inhibition, 48 h
Field: TGI. Provide a value for each of the compounds that follow.

Record excerpt, results attached:
• CNCC(=O)NC(CO)C(=O)NC(CO)C(=O)NC1C(C(N)=O)OC(n2ccc(N)nc2=O)C(O)C1O (stereo not given) = > 50 µg/mL
• CCCCSc1nc(N)c2cn[nH]c2n1 = 52.6 µM
• CSC1(C(=O)O)C2CCC3C2CCC31 (stereo not given) = > 100 µM

I'm hoping you can list TGI for every compound here, please.
1. C[C@H](CCC(=O)NCCS(=O)(=O)O)[C@H]1CC[C@H]2[C@@H]3[C@H](O)C[C@@H]4C[C@H](O)CC[C@]4(C)[C@H]3CC[C@]12C
2. NNC(=O)CCc1ccc2ccc3ccccc3c2c1

1: > 100 µM; 2: > 100 µM

###

Test system: MALME-3M melanoma
Test: NCI tumour cell line growth inhibition, 48 h
OBSERVATION_TYPE: TGI

Recorded results for 5 compounds are shown here.
• CN(c1ccccc1)c1nc(=[N+]2CCCC2)ss1 = > 100 µM
• C=C(C)C1CCC2=CC(CC3(C)OC3C3=CC(C(=O)OC)=C(C1)O3)OC2=O (stereo unspecified) = > 100 µM
• Nc1n[nH]c2c(C(=O)Nc3ccc(Cl)cc3)c(N)n(N)c(=O)c12 = > 100 µM
• C=CC(=O)Nc1ccccc1CC(c1c[nH]c2ccccc12)c1c[nH]c2ccccc12 = 33.3 µM
• COC(=O)c1sc2c(c1C(=O)OC)C(=NC(C)(C)C)SC2=NC(C)(C)C = 37.8 µM

State the recorded TGI for every item in the following list.
1. S=c1[nH]n2c(COc3ccc(Cl)cc3)nnc2s1
2. CN(C)c1cccc(OC(=O)NCCCl)c1
3. CCC[n+]1cc2cc3c(cc2c2c1-c1cc4c(cc1C2)OCO4)OCO3 (tested in a mixture with another compound)
4. O=C(NNc1ccccc1)c1ccc(Cl)c(Cl)c1
5. C=CCC(N[C@H](CO)c1ccccc1)c1ccccn1 (stereo partly specified)
6. C=C1C(=O)O[C@H]2[C@H]1CC/C(COC(=O)CCCCCCCC(=O)OC/C1=C/CC[C@@]3(C)O[C@H]3[C@H]3OC(=O)C(=C)[C@@H]3CC1)=C\CC[C@@]1(C)O[C@@H]21
7. COC(=O)c1c2c(c(C)[n+]([O-])c1C)C(=O)C(NCc1ccc(F)cc1)=CC2=O

1: > 100 µM; 2: > 100 µM; 3: 1.53 µM; 4: > 92.5 µM; 5: > 100 µM; 6: 5.3 µM; 7: 0.493 µM

Fill in TGI for each of the 2 compounds listed.
1. O=C1C(c2c(O)[nH]c3ccc(Cl)cc23)=Nc2ccccc21
2. CC(=O)c1c2c(cc3c1CC1(Cc4cc5c(cc4C1)C(=O)CCC5)C3)CCCC2 (stereo unspecified)

> 58.4 µM
> 100 µM

Hi there! I need TGI for each item below, if you can.
1. O=[N+]([O-])c1cccc(S(=O)(=O)N/N=C/c2cc(I)cc([N+](=O)[O-])c2O)c1
2. CSCC(CO)NC(=O)/C=C/c1c(C)[nH]c(=O)[nH]c1=O (stereo unspecified)
3. C=C1C2CC3CCC2C(OC(=O)c2ccccc2C(=O)O)C13 (stereo unspecified)
4. CN(C)CCNC(=O)c1cccc2c1Oc1cccc([N+](=O)[O-])c1O2
5. COc1ccc2cc(CN3CCC(C4CCN(Cc5ccc6cc(OC)ccc6c5)CC4)CC3)ccc2c1
6. CSc1ccc(NC(=O)Nc2cc(C)ccn2)cc1

64.2 µM
> 875 µM
> 100 µM
28.1 µM
4.51 µM
> 100 µM

Give the measured TGI for N#CC(C(=N/O)/C(=N\O)C(C#N)c1ccccc1)c1ccccc1 (stereo unspecified)
> 100 µM
